Reported values of GLP EC50 for individual entries
# ASSAY_SYSTEM: T1, full-length human GLP-1R (GenBank NM_002062) with an N-terminal FLAG tag on HEK-293T cells (human), P43220
# T1 chain: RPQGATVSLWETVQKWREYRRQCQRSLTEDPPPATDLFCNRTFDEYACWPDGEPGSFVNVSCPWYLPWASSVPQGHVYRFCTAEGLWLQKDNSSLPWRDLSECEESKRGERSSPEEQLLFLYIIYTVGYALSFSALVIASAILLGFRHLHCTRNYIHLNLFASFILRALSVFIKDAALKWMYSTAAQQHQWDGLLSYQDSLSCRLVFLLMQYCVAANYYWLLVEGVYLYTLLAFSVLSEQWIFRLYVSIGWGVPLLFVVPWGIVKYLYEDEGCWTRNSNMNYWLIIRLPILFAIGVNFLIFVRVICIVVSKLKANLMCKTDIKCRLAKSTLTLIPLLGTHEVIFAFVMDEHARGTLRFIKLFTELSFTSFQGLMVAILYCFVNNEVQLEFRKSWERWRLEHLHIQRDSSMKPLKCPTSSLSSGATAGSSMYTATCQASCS
# METHOD_NOTES: cell-based or functional assay
Numbered stars: 1 amine (or outer) side, 2 acyl side, 3 side chain; on linkers, the order of the positions; unused ones are H or OH. Square brackets hold non-standard residues; d marks the D form. Primed or numbered codes have the meaning given here. Side chains are listed from the residue outwards. Ends that are not written are not given here. * marks the point of attachment. C18 diacid = O=C(O)CCCCCCCCCCCCCCCCC(=O)*; C16 diacid = O=C(O)CCCCCCCCCCCCCCC(=O)*; γGlu = O=C(O)[C@H](CCC(=O)[*:2])N[*:1]; Iva = CC[C@](C)(N)C(=O)O; PEG3′ = not defined here; Aib = CC(C)(N)C(=O)O

| BINDER | GLP EC50 |
| --- | --- |
| Y[Aib]EGTFISDYSIALDR[Aib]HQ[Aib]NFVNW[Iva]LAQRKSSGAPPPS (not fully specified (residue 31); ends and bridges not checked) [Compound No. 470] | > 1 µM |
| Y[Aib]EGTFISDYSIALDR[Aib]HQ[Aib]NFVNW[Iva]LAQRPSSGAPPK([PEG3′-PEG3′-γGlu-C16 diacid])S (ends and bridges not checked) [Compound No. 476] | > 1 µM |
| Y[Aib]EGTFISDYSIALDR[Aib]HQ[Aib]NFVNW[Iva]LAQRGGGGSK([PEG3′-PEG3′-γGlu-C18 diacid]) (ends and bridges not checked) [Compound No 942] | 0.0043 µM |
| Y[Aib]EGTFISDYSIALDR[Aib]HQ[Aib]NFVNW[Iva]LAQRPSSGAPPPK([Gly-Gly-Gly-Gly-Gly-γGlu-C18 diacid]) (ends and bridges not checked) [Compound No. 463] | > 1 µM |
